assay: chemical genetic growth profiling, strain panel (AID 1159580);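 note: tested at 20 µM; growth read once vehicle control cultures reached saturation at 30 °C; 1 = growth at the plate median or of vehicle wells; lower values mean less growth of the strain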; conditions: S. cerevisiae deletion strains, growth OD, locus YPL031C, strain PHO85, active compounds read low
Hit rate of the full screen: of about 5,500 compounds, about 2,000 (36%) were called active. Inconclusive results (about 18%) are left out. Some of the results follow.
Each entry below carries its recorded normalized growth.
measured-parameter: normalized growth

>>> value_observed("Cc1cc(Cl)ccc1NNC(=O)c1sccc1Br")
0.867
>>> value_observed("O=C(NNc1ccc(F)cc1F)c1sccc1Cl")
0.944
>>> value_observed("Cc1cc(Cl)ccc1NNC(=O)c1sccc1Cl")
0.861
>>> value_observed("CC(C)(C)C(=O)NC(=S)N/N=C\\c1cc(Cl)cc(Cl)c1O")
0.498
>>> value_observed("CN(C)C=Nc1nnc(Sc2nc3c(Cl)cc(Cl)cc3s2)s1")
0.9
>>> value_observed("CCOC(=O)N/N=C\\c1cc(Cl)cc(Cl)c1O")
0.747
>>> value_observed("FC(F)(F)c1cccc(NC(=S)NN=C2CCCCCC2)c1")
0.884
>>> value_observed("Cc1ccc(NNC(=O)c2cccs2)cc1Cl")
0.964
>>> value_observed("Cc1ccc(C)n1-c1ccc(/C=C2/C(=O)Nc3ccccc32)cc1")
0.931
>>> value_observed("COCCCNC(=S)N/N=C\\c1cc(Br)ccc1O")
0.938
>>> value_observed("CC(C)(C)NC(=S)N/N=C\\c1ccccc1O")
0.867
>>> value_observed("CC(NC(=S)N/N=C\\c1ccccc1O)c1ccccc1 (stereo not drawn)")
0.927
>>> value_observed("COc1ccc(/C=C2/C(=O)Nc3ccccc32)cc1")
0.748

----------
Each entry below carries its recorded normalized growth.
assay: chemical genetic growth profiling, strain panel (AID 1159580);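 note: tested at 20 µM; growth read once vehicle control cultures reached saturation at 30 °C; 1 = growth at the plate median or of vehicle wells; lower values mean less growth of the strain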; details: S. cerevisiae deletion strains, growth OD, locus YJL134W, strain LCB3, active compounds read low
Out of some 5,500 compounds screened, about 2,000 (36%) were called active. Not shown: some 18% with an inconclusive outcome. The list shows a part of the results.
measured-parameter: normalized growth

>>> value_observed("CC[n+]1c(-c2ccccc2)c2cc(N)ccc2c2ccc(N)cc21")
0.924
>>> value_observed("CC(C)(O)[C@@H]1Cc2cc3ccc(=O)oc3cc2O1")
1.02
>>> value_observed("COC(=O)C1OC(=O)C2OC23C1(C)CCC1C2(C)C(OC(C)=O)CC(OC(C)=O)C(C)(C)C2CC(=O)C13C (stereo not given)")
0.994
>>> value_observed("COc1ccc(Cl)cc1C(=O)NCCc1ccc(S(=O)(=O)NC(=O)NC2CCCCC2)cc1")
0.993
>>> value_observed("CCCCCCCCCCCC1=C(O)C(=O)C=C(O)C1=O")
0.984
>>> value_observed("CC1=CC(=O)C2=C(C)CC[C@@H]3[C@H](OC(=O)[C@H]3C)[C@@H]12")
0.992
>>> value_observed("CC12CCC3c4ccc(OC(=O)c5ccccc5)cc4CCC3C1CCC2O (stereo not given)")
1.01
>>> value_observed("COc1cc(OC)c2c(=O)c(OC)c(-c3ccc(OC)c(OC)c3)oc2c1")
1.01
>>> value_observed("C=C[C@H]1CN2CC[C@H]1C[C@@H]2[C@@H](OC(=O)OCC)c1ccnc2ccc(OC)cc12")
1.01
>>> value_observed("CC(C)C1COc2cc3oc(=O)ccc3cc2O1 (stereo not given)")
0.906
